# Tested on: rodent lifetime carcinogenesis bioassay, tumor incidence TD50
# method notes: carcinogenic potency in animals, long-term in vivo studies, CPDB compilation (AID 1745844)
# condition notes: rat; strain albino; both sexes; in feed; site: any site (literature study); lesion: malignant tumor; dosed 120 weeks; study length 120 weeks
Calls of active or inactive are those of the source. The rule behind the calls is not given here.

{"columns": ["molecule", "TD50"],
 "data": [
  ["O=C(OOC(=O)c1ccccc1)c1ccccc1", "15600 mg/kg/day (inactive)"]
]}

* * *

# System: rodent lifetime carcinogenesis bioassay, tumor incidence TD50
# method notes: carcinogenic potency in animals, long-term in vivo studies, CPDB compilation (AID 1745844)
# condition notes: mouse; strain B6C3F1; females; in feed; site: all sites; lesion: lymphoma, histiocytic type; dosed 105 weeks; study length 105 weeks
quantity: TD50 (mg/kg/day)

{"columns": ["molecule", "val"],
 "data": [
  ["[Cl][Sn][Cl]", 2550]
]}

* * *

# Tested on: rodent lifetime carcinogenesis bioassay, tumor incidence TD50
# method notes: carcinogenic potency in animals, long-term in vivo studies, CPDB compilation (AID 1745844)
# condition notes: rat; strain ACI; males; in feed; site: pancreas; lesion: exocrine adenoma; dosed 121 weeks; study length 121 weeks
Calls of active or inactive are those of the source. No rule for the calls is given here.

{"columns": ["molecule", "TD50"],
 "data": [
  ["O=c1c(O)c(-c2ccc(O)c(O)c2)oc2cc(O)cc(O)c12", "72300 mg/kg/day (inactive)"]
]}

* * *

# System: rodent lifetime carcinogenesis bioassay, tumor incidence TD50
# method notes: carcinogenic potency in animals, long-term in vivo studies, CPDB compilation (AID 1745844)
# condition notes: mouse; strain B6C3F1; males; by gavage; site: kidney; lesion: tubular-cell adenocarcinoma; dosed 103 weeks; study length 104 weeks

{"columns": ["molecule", "measure unit", "TD50"],
 "data": [
  ["[Cl][Hg][Cl]", "mg/kg/day", 240]
]}

* * *

# Tested on: rodent lifetime carcinogenesis bioassay, tumor incidence TD50
# method notes: carcinogenic potency in animals, long-term in vivo studies, CPDB compilation (AID 1745844)
# condition notes: mouse; strain B6C3F1; males; in drinking water; site: liver; lesion: hepatocellular adenoma + hepatocellular carcinoma + neoplastic nodule; dosed 90 weeks; study length 91 weeks

{"columns": ["molecule", "measure unit", "TD50"],
 "data": [
  ["C1COCCO1", "mg/kg/day", 1460]
]}

* * *

# Tested on: rodent lifetime carcinogenesis bioassay, tumor incidence TD50
# method notes: carcinogenic potency in animals, long-term in vivo studies, CPDB compilation (AID 1745844)
# condition notes: rat; strain Fischer 344; females; by gavage; site: mammary gland; lesion: fibroadenoma; dosed 103 weeks; study length 104 weeks
Active and inactive are the calls of the source. No rule for the calls is given here.
Possible outcomes: YES (active), NO (inactive)

{"columns": ["molecule", "qualitative label"],
 "data": [
  ["ClCC(Cl)(Cl)Cl", "NO"],
  ["C[C@@H]1Cc2c(Cl)cc(C(=O)N[C@@H](Cc3ccccc3)C(=O)O)c(O)c2C(=O)O1", "YES"]
]}

* * *

# Test system: rodent lifetime carcinogenesis bioassay, tumor incidence TD50
# method notes: carcinogenic potency in animals, long-term in vivo studies, CPDB compilation (AID 1745844)
# condition notes: rat; strain Osborne-Mendel; females; by gavage; site: any site (literature study); lesion: several types; types named in the paper; dosed 104 weeks; study length 105 weeks
quantity: TD50 (mg/kg/day)

{"columns": ["molecule", "quantity", "measure unit", "val"],
 "data": [
  ["Clc1cc2c(cc1Cl)Oc1cc(Cl)c(Cl)cc1O2", "TD50", "mg/kg/day", 0.00158]
]}

Data provenance: PubChem BioAssay AID1745844
